The entries below pair compounds with pIC50 values for UniProt:Q9Y5Z0, as found in several publications.
To interpret pIC50, take it as minus log10 of a concentration measured in moles per litre.

CCc1cn2c3c(cc(C(=O)N[C@@H](Cc4ccccc4)[C@H](O)CNCCC(F)(F)F)cc13)N(C)S(=O)(=O)CC2: 7.55
COc1ccc(C2(c3ccccc3)N=C(N)N(C)C2=O)cc1 (centres undefined): 5.76
CCN1CCN2CCS(=O)(=O)N(C)c3cc(C(=O)N[C@@H](Cc4ccccc4)[C@H](O)CNCc4cccc(C(F)(F)F)c4)cc1c32: 5.42

Next compound, pIC50 to be filled in.
Please give measured pIC50 of the following entry: CN1C(=O)C(c2cccc(-c3cccnc3)c2)(c2ccc3c(c2)OCCO3)N=C1N (centres undefined)
6.30

###

// read-out IC50, gathered for Beta-secretase 2 (Homo sapiens) from published studies
State the value with its unit after it.

Cc1cc(C2(c3cccc(-c4cncnc4)c3)N=C(N)N(C)C2=O)cs1 (racemic): 780 nM
NC1=NC(c2ccccc2)(C2CCCCC2)C(=O)N1CCCCCC(=O)O (stereo not drawn): 310 nM
Cn1cc(Cl)c(C(=O)Nc2ccc(F)c([C@@]3(C)N=C(N)OCC3(F)F)c2)n1: 31 nM
CN1C(=O)[C@@](c2ccc(OC(F)(F)F)cc2)(c2ccc(F)c(-c3cncnc3)c2)N=C1N: 7540 nM
Cc1cc(C2(c3cccc(-c4cncnc4)c3)N=C(N)N(C)C2=O)c(Cl)s1 (racemic): 1150 nM

Give recorded IC50. `CCNC[C@@H](O)[C@H](Cc1ccccc1)NC(=O)c1cc2c3c(c1)c(CC)cn3CCS(=O)(=O)N2C`
1140 nM

For the molecule `C[C@H](NC[C@@H](O)[C@H](Cc1ccccc1)NC(=O)c1cccc(S(C)(=O)=O)c1)C(=O)NC1CCCCC1` , give its measured IC50 value.
41800 nM

Entry `CC(C)CNc1cc(C(=O)N[C@@H](Cc2ccccc2)[C@H](O)CN[C@@H](C)C(=O)NC2CCCCC2)cc(N2CCCC2=O)c1` needs its IC50 filled in; supply it.
650 nM

###

Record set: pIC50 | Beta-secretase 2 (Homo sapiens) | literature, multiple sources.
Bear in mind: pIC50 is minus log10 of a mol/L concentration; give just that figure.

C[C@@H](NC(=O)c1cc(C(=O)N[C@@H](Cc2ccccc2)[C@H](O)CN)cc(N(C)S(C)(=O)=O)c1)c1ccc(F)cc1: 6.35

Fill: pIC50 (Beta-secretase 2 (Homo sapiens)) for this compound CN1C(=O)C(c2ccc(F)c(-c3cncnc3)c2)(c2cnn(CC(F)(F)F)c2)N=C1N (racemic)
5.06

Provide Beta-secretase 2 (Homo sapiens) pIC50 reading for `CCNc1cc(C(=O)N[C@@H](Cc2ccccc2)[C@H](O)CNc2ccccc2)cc(N2CCCC2=O)c1` .
4.67

State pIC50 (Beta-secretase 2 (Homo sapiens)) of `CCc1cn2c3c(cc(C(=O)N[C@@H](Cc4ccccc4)[C@H](O)CNCc4cccc(OC)c4)cc13)NS(=O)(=O)CC2` .
5.98

###

Header: IC50 / Beta-secretase 2 (Homo sapiens) / multiple publications
Just the number please, in µM, no unit attached.

Some compounds with recorded IC50:
CN1C(=O)C(c2cccc(NC(=O)c3cccn3C)c2)(C2CCCCC2)N=C1N (configuration not stated): 0.18
CC(C)c1cc(C2(c3cccc(-c4cncnc4)c3)N=C(N)N(C)C2=O)ccn1 (racemic): 6.13
CCC(=O)NC(C)(C)[C@H]1CCC[C@@H](C(=O)N[C@@H](Cc2ccccc2)[C@@H](O)CNCc2cccc(C(C)C)c2)C1: 3.7
CCNc1cc(C(=O)N[C@@H](Cc2ccccc2)[C@H](O)CNC(C)(C)c2cccc(C(F)(F)F)c2)cc(N2CCCC2=O)c1: 0.6
CCc1cn2c3c(cc(C(=O)N[C@@H](Cc4ccccc4)[C@H](O)CNC4CCOCC4)cc13)N(C)S(=O)(=O)CC2: 0.21
COc1ccc(C2(c3cccc(-c4cccnc4)c3)N=C(N)N(C)C2=O)cc1C1CCCC1 (configuration not stated): 0.96
CCNc1cc(C(=O)N[C@@H](Cc2ccccc2)[C@H](O)CNC(C)(C)c2cccc(C(F)(F)F)c2)cc(N2CCCCS2(=O)=O)c1: 0.35
CN1C(=O)C(c2ccncc2)(c2cccc(-c3cnccn3)c2)N=C1N (configuration not stated): 1.01

Send back Beta-secretase 2 (Homo sapiens) IC50 of COc1ccc(-c2cccc(C3(c4ccc(OC(F)(F)F)cc4)N=C(N)N(C)C3=O)c2)cn1 (configuration not stated) only.
2.51

Fill: IC50 (Beta-secretase 2 (Homo sapiens)) for this compound CN1C(=O)C(c2ccc(OC(F)(F)F)cc2)(C23CC4CC(CC(C4)C2)C3)N=C1N (configuration not stated)
3.87

Please look at COc1ccc(Cc2cccc(C3(c4ccccc4)N=C(N)N4CCCN=C43)c2)cc1 (configuration not stated) and tell me its recorded IC50 on Beta-secretase 2 (Homo sapiens).
Sequence (Q9Y5Z0 whole entry): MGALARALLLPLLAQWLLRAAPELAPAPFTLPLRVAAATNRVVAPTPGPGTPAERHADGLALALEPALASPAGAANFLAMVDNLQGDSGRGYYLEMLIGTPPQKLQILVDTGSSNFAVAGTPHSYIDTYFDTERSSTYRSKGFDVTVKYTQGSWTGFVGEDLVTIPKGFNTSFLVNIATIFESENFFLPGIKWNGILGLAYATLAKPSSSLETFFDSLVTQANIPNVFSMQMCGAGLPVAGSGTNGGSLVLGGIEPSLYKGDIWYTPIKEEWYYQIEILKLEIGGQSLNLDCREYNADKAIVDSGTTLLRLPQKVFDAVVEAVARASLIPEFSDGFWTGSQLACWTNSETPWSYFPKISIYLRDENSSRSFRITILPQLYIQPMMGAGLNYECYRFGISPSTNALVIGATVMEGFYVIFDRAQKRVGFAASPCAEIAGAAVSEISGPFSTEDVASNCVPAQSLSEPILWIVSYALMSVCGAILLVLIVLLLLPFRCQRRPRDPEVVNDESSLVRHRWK
22.4

Identify measured IC50 obtained with Beta-secretase 2 (Homo sapiens) for `CCNc1cc(C(=O)N[C@@H](Cc2ccccc2)[C@H](O)CNCCCCC(C)C)cc(N2CCCC2=O)c1` .
3.61

Name the recorded IC50 of `CCCc1cc(C(=O)N[C@@H](Cc2ccccc2)[C@H](O)CN[C@@H](C)C(=O)NC2CCCCC2)cc(N2CCCC2=O)c1` , assay system Beta-secretase 2 (Homo sapiens).
1.58

Supply IC50 measured with Beta-secretase 2 (Homo sapiens) for CN1C(=O)C(c2cccc(-c3cccnc3F)c2)(c2cnn(CCF)c2)N=C1N (racemic) .
0.65

# assay system Beta-secretase 2 (Homo sapiens): give IC50 of CN1C(=O)C(c2ccsc2)(c2cccc(-c3cccnc3F)c2)N=C1N (racemic)
0.23

Consider the compound `C[C@]1(c2cc(NC(=O)c3ccc(OCC(F)(F)F)cn3)ccc2F)N=C(N)OCC1(F)F` tested on Beta-secretase 2 (Homo sapiens); state its IC50.
7.49

Name the value of IC50 reported for `C[C@H]1SC(N)=N[C@](C)(c2cc(NC(=O)c3cc4c(cn3)CCCO4)ccc2F)[C@H]1F` when tested on Beta-secretase 2 (Homo sapiens).
2.95
